Hello, the source for this data is the EternaBench riboswitch data, in case you need it.

# Tested on: MS2 coat protein
# MEASUREMENT_PROTOCOL: apparent Kd, MS2 coat protein; higher = weaker binding; RNA-MaP array; FMN 200 µM where present
# MEASUREMENT_PARAMETERS: designed as: ON switch for flavin mononucleotide; no ligand
READOUT_LABEL: apparent Kd (µM)
Hi! Could you send only the number? It should be in µM, unit omitted.

Please report the measured apparent Kd for GAGUGGUUGGGAGGAUAUGCAUUGUUAUUAAAUGCAGAAGGUUUUAACAUGAGGAUCACCCAUGUAGGACUAUUCCUGUGUUUC
0.0174

Please report the measured apparent Kd for AUACAUGAGGAUCACCCAUGUAAUUAAUUAACUUGUAAGAUCAAGGAUAUCAGCUCGAUUAGAGCUGAGAAGGUGAUCACAUGU
0.26

Please report the measured apparent Kd for GCGUAAUAGGUGUAGCUAGUCGUGCAAGAAGGGUGGUGAACAUGAGGAUCACCCAUGUGGUCAAUACAGGAUAUUGCUAUACGC
0.572

Please report the measured apparent Kd for CGUUGUUCCGCAGGAUAUGCAUUGGAUUACAAUGCAGAAGGGCGAUAACAUGAGGAUCACCCAUGUGUGGACAAUAAGGAAGAG
0.811
